Procedure text: Inhibition of CCL3 induced chemotaxis in human T lymphocytes
pIC50: −log10 of the molar value.
So basically: pIC50 at 7 or higher? That is satisfied. Lower than 7? That is not satisfied.

Does the reported pIC50 for CC(C)(O)CCC(C[C@H](O)[C@H](Cc1ccccc1F)NC(=O)c1cnc2ccccc2n1)C(N)=O (some centres not stated) fall at or above the 7 mark?
not satisfied

Hi team, for CC(C)(F)CCC(C[C@H](O)[C@H](Cc1ccccc1)NC(=O)c1cnc2ccccc2n1)C(=O)NCc1ccccc1 (some centres not stated) , is the recorded pIC50 at or above 7?
not satisfied

Record CN1CCN(C(=O)C(CCC(C)(C)F)C[C@H](O)[C@H](Cc2ccccc2)NC(=O)c2cnc3ccccc3n2)CC1 (some centres not stated) ; criterion: pIC50 no lower than 7. Met?
not satisfied

I'd appreciate it if you could say whether `CC(C)(O)CC[C@H](C[C@H](O)[C@H](Cc1ccccc1)NC(=O)c1cnc2ccccc2n1)C(N)=O` has pIC50 at least equal to 7.
not satisfied

API: above_or_equal(metric=pIC50, cutoff=7) for item NC(=O)C(C[C@H](O)[C@H](Cc1ccccc1)NC(=O)c1cnc2ccccc2n1)C1CCCCC1 (some centres not stated)
satisfied

Check this molecule for pIC50 at or above 7: CC(C)(F)CCC(C[C@H](O)[C@H](Cc1ccccc1)NC(=O)c1cnc2ccccc2n1)C(=O)N1CCCC1 (some centres not stated)
not satisfied

Answer whether pIC50 of `CC(C)CC[C@H](C[C@H](O)[C@H](Cc1ccccc1)NC(=O)c1cnc2ccccc2n1)C(N)=O` is greater than or equal to 7.
satisfied

Kindly determine if pIC50 recorded for O=C(N[C@@H](Cc1ccccc1)[C@@H](O)CC(C(=O)NO)C1CCC(F)(F)CC1)c1cnc2ccccc2n1 (some centres not stated) is above or exactly 7.
satisfied

Has CC(C)(F)CCC(C[C@H](O)[C@H](Cc1ccccc1)NC(=O)c1cnc2ccccc2n1)C(=O)NN (some centres not stated) a recorded pIC50 greater than or equal to 7?
satisfied

Does the molecule CC(C)(F)CCC(C[C@H](O)[C@H](Cc1ccccc1)NC(=O)c1cnc2ccccc2n1)C(=O)NO (some centres not stated) have recorded pIC50 that is 7 or more?
satisfied

// inclusive: pIC50 at least 7? input: NC(=O)C(C[C@H](O)[C@H](Cc1ccccc1)NC(=O)c1cnc2ccccc2n1)C1CCC(F)(F)CC1 (some centres not stated)
not satisfied

Is the recorded value of pIC50 equal to or greater than 7 for this molecule? `CC(C)(F)CC[C@H](C[C@H](O)[C@H](Cc1ccccc1)NC(=O)c1cnc2ccccc2n1)C(N)=O`
satisfied

For this molecule, is measured pIC50 7 or higher? NC(=O)C(C[C@H](O)[C@H](Cc1ccccc1)NC(=O)c1cnc2ccccc2n1)C1CCOCC1 (some centres not stated)
not satisfied

Please check the record `CNC(=O)[C@H](CC(C)C)C[C@H](O)[C@H](CC1CCCCC1)NC(=O)c1cnc2ccccc2c1` and state if its pIC50 is at or above 7.
not satisfied

---

Answer each item with its documented pIC50.
Procedure text: Inhibition of CCL3 induced chemotaxis in human T lymphocytes
Lab note — pIC50 values are minus log10 of concentrations in M.

Consider CCNC(=O)C(CCC(C)(C)F)C[C@H](O)[C@H](Cc1ccccc1)NC(=O)c1cnc2ccccc2n1 (stereo partly drawn) . Its measured pIC50 is 6.89

Consider NC(=O)C(C[C@H](O)[C@H](Cc1ccccc1)NC(=O)c1cnc2ccccc2n1)C1(O)CCCCC1 (stereo partly drawn) . Its measured pIC50 is 6.92

So, NC(=O)C(C[C@H](O)[C@H](Cc1ccccc1)NC(=O)c1cnc2ccccc2n1)C1(O)CCC(F)(F)CC1 (stereo partly drawn) ? Its pIC50 was 7.17
